Each recorded value in this set is attributed to ChEMBL document CHEMBL1156763.

Test system: Mus musculus
Assay: Analgesic activity in Swiss mouse assessed as inhibition of acetic acid-induced writhing response at 50 mg/kg, po administered 1 hr before acetic acid challenge measured for 30 mins relative to control
Assay type: functional
quantityMeasured: inhibition in vivo at 50 mg/kg (%)
Enter your answer as a number in %; do not include the unit.

Recorded inhibition in vivo at 50 mg/kg, per entry:
CCC(CC)Nc1c(C(=O)N(CC)CC)c2nnc(C(C)C)n2c2ncccc12
75
CCN1CCN(c2c(C(=O)N(CC)CC)c3ncc(C)n3c3ncccc23)CC1
48
CCN(CC)C(=O)c1c(N2CCN(c3ccccc3OC)CC2)c2cccnc2n2ccnc12
0
CCNC(=O)c1c(NCC(C)C)c2cccnc2n2c(C(C)C)nnc12
21

In the following, a different molecule is considered.
Return reported inhibition in vivo at 50 mg/kg; argument: CCN(CC)C(=O)c1c(NCC(C)C)c2cccnc2n2c(C(C)C)nnc12
33

###

Recorded inhibition in vivo at 50 mg/kg by entry
System: Mus musculus
Experiment: Analgesic activity in Swiss mouse assessed as inhibition of acetic acid-induced writhing response at 50 mg/kg, po administered 1 hr before acetic acid challenge measured for 30 mins relative to control
Format: functional
Your answer should be a number followed by the unit of measure.

Solved cases (3 shown):
CCN(CC)C(=O)c1c(N2CCN(C)CC2)c2cccnc2n2c(C)cnc12
86%
CCN(CC)C(=O)c1c(N2CCN(C)CC2)c2cccnc2n2c(C(C)C)nnc12
85%
CCCN(C)c1c(C(=O)N(CC)CC)c2nnc(C(C)C)n2c2ncccc12
37%

What does the record list as inhibition in vivo at 50 mg/kg for CCN(CC)C(=O)c1c(N2CCN(Cc3ccccc3)CC2)c2cccnc2n2ccnc12 ?
0%

###

System: Mus musculus
Experiment: Analgesic activity in Swiss mouse assessed as inhibition of acetic acid-induced writhing response at 25 mg/kg, po administered 1 hr before acetic acid challenge measured for 30 mins relative to control
Type: functional
inhibition in vivo at 25 mg/kg reference
Write down the numeric answer in % and omit the unit.

CCOc1cnc2c(C(=O)N(CC)CC)c(N3CCN(C)CC3)c3cccnc3n12
54

Checklist item: inhibition in vivo at 25 mg/kg tested on Mus musculus, entry CCN(CC)C(=O)c1c(NCC(C)C)c2cccnc2n2ccnc12 , value?
48

Please provide the recorded inhibition in vivo at 25 mg/kg for CCN(CC)C(=O)c1c(NC(C)C)c2cccnc2n2c(C(C)C)nnc12 , tested on Mus musculus.
33

Write down the reported inhibition in vivo at 25 mg/kg of CCN1CCN(c2c(C(=O)N(CC)CC)c3ncc(C)n3c3ncccc23)CC1 , test system: Mus musculus.
54

Give recorded inhibition in vivo at 25 mg/kg with Mus musculus for the following compound: CCN(CC)C(=O)c1c(N2CCN(C)CC2)c2cccnc2n2ccnc12
56

Record lookup: for Mus musculus, what inhibition in vivo at 25 mg/kg belongs to CCC(CC)Nc1c(C(=O)N(CC)CC)c2nnc(C(C)C)n2c2ncccc12 ?
58

Form field: inhibition in vivo at 25 mg/kg recorded for CCN(CC)C(=O)c1c(N(C)CC)c2cccnc2n2c(C(C)C)nnc12 with Mus musculus (enter value)
17

Query for Mus musculus: what inhibition in vivo at 25 mg/kg does the record show for CCN(CC)C(=O)c1c(N2CCN(C)CC2)c2cccnc2n2c(C(C)C)nnc12 ?
90

Form field - read-out: inhibition in vivo at 25 mg/kg; system: Mus musculus; submitted item: CCN(CC)C(=O)c1c(N2CCN(C)CC2)c2cccnc2n2c(C)cnc12
83

###

Tested on: Mus musculus
Assay: Analgesic activity in Swiss mouse assessed as inhibition of acetic acid-induced writhing response at 50 mg/kg, po administered 1 hr before acetic acid challenge measured for 30 mins relative to control
Assay type: functional
quantityMeasured: inhibition in vivo at 50 mg/kg (%)
Kindly provide the numeric value in % only, without the unit symbol.

The cases that follow already have their inhibition in vivo at 50 mg/kg on record.
CCN(CC)C(=O)c1c(N(C)CC)c2cccnc2n2c(C(C)C)nnc12
59
CCN(CC)C(=O)c1c(N2CCN(C)CC2)c2cccnc2n2c(N(C)C)cnc12
16
CC(C)CNc1c(C(=O)N2CCN(C)CC2)c2nnc(C(C)C)n2c2ncccc12
29
CCN(CC)C(=O)c1c(NCC(C)C)c2cccnc2n2ccnc12
48
CCN(CC)C(=O)c1c(NC(C)C)c2cccnc2n2c(C(C)C)nnc12
54

Value lookup for inhibition in vivo at 50 mg/kg; key = CCN(CC)C(=O)c1c(N2CCN(C)CC2)c2cccnc2n2ccnc12
74

Tell me the measured inhibition in vivo at 50 mg/kg of CCN(C)C(=O)c1c(NC(C)C)c2cccnc2n2c(C(C)C)nnc12 , please.
0

Which value of inhibition in vivo at 50 mg/kg has been reported for CCOc1cnc2c(C(=O)N(CC)CC)c(N3CCN(C)CC3)c3cccnc3n12 in the records?
62

Reported inhibition in vivo at 50 mg/kg for CCN(CC)C(=O)c1c(N2CCN(CCO)CC2)c2cccnc2n2ccnc12 : what is it?
12

So what's the measured inhibition in vivo at 50 mg/kg for this one? CCNc1c(C(=O)N(CC)CC)c2nccn2c2ncccc12
2

###

System: Mus musculus
Test: Analgesic activity in Swiss mouse assessed as inhibition of acetic acid-induced writhing response at 50 mg/kg, po administered 1 hr before acetic acid challenge measured for 30 mins relative to control
Assay type: functional
Measured inhibition in vivo at 50 mg/kg by item
Note: state the figure and append the unit.

Tell me reported inhibition in vivo at 50 mg/kg for C=CCNc1c(C(=O)N(CC)CC)c2nnc(C(C)C)n2c2ncccc12 , tested with Mus musculus.
28%

Hi! What's the reported inhibition in vivo at 50 mg/kg for CCN1CCN(c2c(C(=O)N(CC)CC)c3nccn3c3ncccc23)CC1 on Mus musculus?
30%

Give recorded inhibition in vivo at 50 mg/kg with Mus musculus for the following compound: CCc1nnc2c(C(=O)N(CC)CC)c(N(C)CC(C)C)c3cccnc3n12
26%

Record lookup: for Mus musculus, what inhibition in vivo at 50 mg/kg belongs to CCOC(=O)c1cn2c(n1)c(C(=O)N(CC)CC)c(N1CCN(C)CC1)c1cccnc12 ?
2%

Request - read-out inhibition in vivo at 50 mg/kg | tested on Mus musculus | compound CCN(CC)C(=O)c1c(NC)c2cccnc2n2c(C)cnc12
0%

###

Tested on: Mus musculus
Assay: Analgesic activity in Swiss mouse assessed as inhibition of acetic acid-induced writhing response at 12.5 mg/kg, po administered 1 hr before acetic acid challenge measured for 30 mins relative to control
Format: functional
Rule: True for inhibition in vivo at 12.5 mg/kg not less than 20%, False for anything less.

Observe how each entry below is paired with its result.
CCN(CC)C(=O)c1c(N2CCN(C)CC2)c2cccnc2n2c(C(C)C)nnc12
True
CCN(CC)C(=O)c1c(NCC(C)C)c2cccnc2n2ccnc12
False
CCOc1cnc2c(C(=O)N(CC)CC)c(N3CCN(C)CC3)c3cccnc3n12
True

Check the entry CCN(CC)C(=O)c1c(N2CCN(C)CC2)c2cccnc2n2c(C)cnc12 : does inhibition in vivo at 12.5 mg/kg equal or exceed 20%?
True

Reported inhibition in vivo at 12.5 mg/kg at or above 20%? CCC(CC)Nc1c(C(=O)N(CC)CC)c2nnc(C(C)C)n2c2ncccc12
True

// inclusive: inhibition in vivo at 12.5 mg/kg at least 20%? input: CCN(CC)C(=O)c1c(N2CCN(C)CC2)c2cccnc2n2ccnc12
True

inhibition in vivo at 12.5 mg/kg >= 20% for CCN(CC)C(=O)c1c(NC(C)C)c2cccnc2n2c(C(C)C)nnc12 ?
False

Confirm if inhibition in vivo at 12.5 mg/kg reported for the compound CCN1CCN(c2c(C(=O)N(CC)CC)c3ncc(C)n3c3ncccc23)CC1 is 20% or above.
False
